# tgt: T1, T2 mechanosensitive channel from Thermoplasma volcanium, tag free (Thermoplasma volcanium)
# T1 construct: TVN0821, gene amplified from genomic DNA (DSM 4299 [GSS1*]); 297 amino acids per monomer; Cloned into pNIC28-Bsa4 (TEV site) and pET46 (Enterokinase site); In detergent (0.03 % DDM); also called T2 channel; tag free T2-channel; source: E. coli C43(DE3), purified (DDM solubilised, IMAC, tag cleavage, second IMAC, gel filtration); not shown: His-tag, N-terminal, cleaved
# T1 chain: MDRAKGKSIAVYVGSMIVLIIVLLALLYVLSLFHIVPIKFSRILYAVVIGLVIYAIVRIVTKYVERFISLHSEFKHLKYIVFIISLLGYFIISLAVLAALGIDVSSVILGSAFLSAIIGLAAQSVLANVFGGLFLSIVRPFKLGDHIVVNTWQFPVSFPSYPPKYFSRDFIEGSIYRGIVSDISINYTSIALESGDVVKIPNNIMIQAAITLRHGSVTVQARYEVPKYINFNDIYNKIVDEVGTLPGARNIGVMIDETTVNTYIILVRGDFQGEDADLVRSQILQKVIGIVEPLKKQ
# protocol_summary: SPR; BIAcore 3000, 25 °C, 20 mM sodium phosphate pH 7.4, 150 mM NaCl, 0.03 % DDM; T2 channel amine-coupled on CM5 (1500 - 2000 RU); nanobodies 0.35 - 86.1 nM injected in triplicates; global fit to a simple bimolecular model, KD = kd/ka
# measurement_setup: both partners purified
Flag rule - koff less than 0.008 s⁻¹ flags label 1; the remaining entries get label 0.

Exam item: Please let me know if nanobody 2 (VHH, pHEN6 vector; also called Nb 2; CA-number 3381; source: E. coli WK6 periplasm, purified (IMAC, gel filtration); not shown: His-tag, C-terminal, kept) VHH: QVQLQESGGGLVQAGGSLRLSCAASGGTFRTGGMAWFRQAPGKAREFAAGISWSGGSTDYGDSVKGRFTISRDNAKNTVYLQMNSLKPEDTAVYYCAASRRFRSGVLTRADDVDYWGKGTQVTVSS shows koff below 0.008 s⁻¹.
Marked response: label 0

Exam item: Input nanobody 22 (VHH, pHEN6 vector; also called Nb 22; CA-number 3406; source: E. coli WK6 periplasm, purified (IMAC, gel filtration); not shown: His-tag, C-terminal, kept) VHH: QVQLQESGGGLVQAGGSLRLSCAASGGTFKSGGMAWFRQAPGKAREFAAGISWSGGSTDYEDSVKGRFTISRDNAKNTMYLQMNSLKPEDTAVYYCAAARRFRAGVVTRADDVDYWGKGTQVTVSS ; condition: koff strictly below 0.008 s⁻¹. Does it hold?
Marked response: label 1

Exam item: Here's an entry: nanobody 9 (VHH, pHEN6 vector; also called Nb 9; CA-number 3390; source: E. coli WK6 periplasm, purified (IMAC, gel filtration); not shown: His-tag, C-terminal, kept) VHH: QVQLQESGGGLVQPGGSLRLSCAASGSIFGINAMGWYRRPPGKQRELVAVITSGGSTNYADSVKGRFTISRGNAKNTVYLQMNSLKAEDTAVYYCNAYTDFVRPYNHWGQGTQVTVSS . Is its koff below 0.008 s⁻¹?
Marked response: label 0
